Tested on: in vivo angiogenesis, blood vessel count
procedureSummary: reduction of blood vessel formation in vivo – HTS, in vivo study (AID 732);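 note: zebrafish embryos dosed at one day post fertilization; 0% = reference inhibitor and 100% = plate mean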
conditionLabel: stronger effect = lower value;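 tested at 30 µM in the well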
The source made the active and inactive calls. The rule behind the calls is not given here. Peptide text beside a SMILES is read from it. * marks the point of attachment. Cbz = O=C(OCc1ccccc1)*
Listed here: items and their measured vessel count % control.

>  <compound>
CC[C@@H](CO)NC(=O)[C@@H]1C=C2c3cccc4[nH]cc(c34)C[C@H]2N(C)C1

>  <vessel count % control>
121% (inactive)

$$$$
>  <compound>
CSc1ccc2c(c1)C(N1CCN(C)CC1)Cc1ccccc1S2 (stereo not given)

>  <vessel count % control>
60.6% (inactive)

$$$$
>  <compound>
OCC1NC[C@@H](O)C(O)[C@@H]1O (stereo not given in full)

>  <vessel count % control>
89.4% (inactive)

$$$$
>  <compound>
COC(=O)C(C)(N)Cc1ccc(O)cc1 (stereo not given)

>  <vessel count % control>
123% (inactive)

$$$$
>  <compound>
CC1=C(C)C(=O)C(CCCCC#CCCCC#CCO)=C(C)C1=O

>  <vessel count % control>
88.8% (inactive)

$$$$
>  <compound>
CN1C(C(=O)Nc2ccccn2)=C(O)c2ccccc2S1(=O)=O

>  <vessel count % control>
110% (inactive)

$$$$
>  <compound>
CC(=O)O[C@H]1CC2(C)[C@@H](C[C@@H](O)[C@H]3[C@@]4(C)CC[C@@H](O)[C@@H](C)[C@@H]4CC[C@@]32C)C1=C(CCC=C(C)C)C(=O)O (stereo not given in full)

>  <vessel count % control>
100% (inactive)

$$$$
>  <compound>
O=C1c2c(O)ccc(O)c2C(=O)c2c(NCCNCCO)ccc(NCCNCCO)c21

>  <vessel count % control>
136% (inactive)

$$$$
>  <compound>
CN1C(C)(C)CCCC1(C)C

>  <vessel count % control>
106% (inactive)

$$$$
>  <compound>
CS(=O)(=O)Nc1ccc([N+](=O)[O-])cc1Oc1ccccc1

>  <vessel count % control>
80.2% (inactive)

$$$$
>  <compound>
OC(CCN1CCCCC1)(c1ccccc1)C1CCCCC1 (stereo not given)

>  <vessel count % control>
98.5% (inactive)

$$$$
>  <compound>
CC(C)N(CCC(=O)c1ccc2ccccc2c1)Cc1ccccc1

>  <vessel count % control>
0% (inactive)

$$$$
>  <compound>
COc1cccc(-c2cc(=O)c3ccccc3o2)c1N

>  <vessel count % control>
73.8% (inactive)

$$$$
>  <compound>
CSC(=N)N

>  <vessel count % control>
68.6% (inactive)

$$$$
>  <compound>
O=c1[nH]ccc2c(O)cccc12

>  <vessel count % control>
0% (inactive)

$$$$
>  <compound>
CN(C(=O)Cc1ccc(Cl)c(Cl)c1)C(CN1CCCC1)c1cccc(OCC(=O)O)c1 (stereo not given)

>  <vessel count % control>
124% (inactive)

$$$$
>  <compound>
NC(N)=NCc1cccc(I)c1

>  <vessel count % control>
98.4% (inactive)

$$$$
>  <compound>
COc1ccc(/C=C/C(=O)Nc2ccccc2C(=O)O)cc1OC

>  <vessel count % control>
100% (inactive)

$$$$
>  <compound>
c1ccc(C2CC2)c(OCC2=NCCN2)c1

>  <vessel count % control>
104% (inactive)

$$$$
>  <compound>
C/C(O)=C(\C#N)C(=O)Nc1cc(Br)ccc1Br

>  <vessel count % control>
139% (inactive)

$$$$
>  <compound>
O=C(O)C1CN(CCCP(=O)(O)O)CCN1 (stereo not given)

>  <vessel count % control>
119% (inactive)

$$$$
>  <compound>
Cn1ccnc1

>  <vessel count % control>
109% (inactive)

$$$$
>  <compound>
O=C(O)[C@@H]1C[C@@H](C(=O)O)N1

>  <vessel count % control>
99.6% (inactive)

$$$$
>  <compound>
O=C(N[C@@H](Cc1ccccc1)C(=O)CCl)OCc1ccccc1

>  <vessel count % control>
0% (inactive)

$$$$
>  <compound>
C[C@]12C[C@H](O)[C@H]3[C@@H](CCC4=CC(=O)CC[C@@]43C)[C@@H]1CC[C@@H]2C(=O)CO

>  <vessel count % control>
103% (inactive)

$$$$
>  <compound>
Cn1c(=O)[nH]c2ncn(C)c2c1=O

>  <vessel count % control>
95.7% (inactive)

$$$$
>  <compound>
C=CCN1CCc2cc(O)c(O)cc2C(c2ccccc2)C1 (stereo not given)

>  <vessel count % control>
114% (inactive)

$$$$
>  <compound>
CN1C[C@@H](CS(=O)(=O)N(C)C)C[C@@H]2c3cccc4c3c(cn4C)C[C@H]21

>  <vessel count % control>
103% (inactive)

$$$$
>  <compound>
CC(C)C[C@H](N)CSSC[C@@H](N)CC(C)C

>  <vessel count % control>
39.2% (inactive)

$$$$
>  <compound>
CC(=O)OCC1=C(C(=O)O)N2C(=O)[C@@H](NC(=O)Cc3cccs3)[C@H]2SC1

>  <vessel count % control>
132% (inactive)

$$$$
>  <compound>
Nc1ncnc2c1ncn2C1CCCO1 (stereo not given)

>  <vessel count % control>
101% (inactive)

$$$$
>  <compound>
COc1ccccc1OCC(O)CN1CCN(CC(=O)Nc2c(C)cccc2C)CC1 (stereo not given)

>  <vessel count % control>
97.9% (inactive)

$$$$
>  <compound>
c1ccc([C@H]2CN3CCSC3=N2)cc1

>  <vessel count % control>
98.4% (inactive)

$$$$
>  <compound>
CC(C)[C@H](NC(=O)OCc1ccccc1)C(=O)N[C@H](C=O)Cc1ccccc1 (Cbz-Val-Phe-aldehyde)

>  <vessel count % control>
107% (inactive)

$$$$
>  <compound>
CP(=O)(O)C1=CCNCC1

>  <vessel count % control>
116% (inactive)

$$$$
